# SYSTEM NAME: Tyrosine Hydroxylase (Bos taurus)
# Sequence (P17289 1-491): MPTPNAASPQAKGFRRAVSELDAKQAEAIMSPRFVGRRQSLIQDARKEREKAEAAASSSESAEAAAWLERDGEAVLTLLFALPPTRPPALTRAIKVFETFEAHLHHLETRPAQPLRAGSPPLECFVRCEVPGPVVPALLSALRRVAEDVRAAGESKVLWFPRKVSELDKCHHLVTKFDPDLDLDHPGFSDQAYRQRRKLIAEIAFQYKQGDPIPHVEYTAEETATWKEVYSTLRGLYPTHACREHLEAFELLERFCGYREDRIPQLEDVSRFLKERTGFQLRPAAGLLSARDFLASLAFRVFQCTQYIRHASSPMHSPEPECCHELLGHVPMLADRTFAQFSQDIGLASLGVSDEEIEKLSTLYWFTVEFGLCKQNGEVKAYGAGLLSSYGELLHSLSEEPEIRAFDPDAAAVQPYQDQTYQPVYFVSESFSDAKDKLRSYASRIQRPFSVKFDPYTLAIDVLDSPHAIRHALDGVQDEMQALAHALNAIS
# PROTOCOL NOTES: Inhibition of tyrosine hydroxylase (TH)
# Format: biochemical
# MEASUREMENT CONDITIONS: 100 mcg/cc
METRIC NAME: inhibition at 100 µg/mL
Remember to put the unit after the number in your answer.

What value of inhibition at 100 µg/mL has been recorded for this entry: COC(=O)c1ccc(CCC(=O)C2C(=O)C=C(C)OC2=O)cc1 (stereo not shown) 13%

What inhibition at 100 µg/mL value was documented for this molecule, CC1=CC(=O)C(C(=O)CCc2ccccc2)C(=O)O1 (stereo not shown) [reference compound] ? 49.7%

What does the record list as inhibition at 100 µg/mL for CC1=CC(=O)C(C(=O)CCc2ccc(C#N)cc2)C(=O)O1 (stereo not shown) ? 81.4%

// query inhibition at 100 µg/mL value for entry CC1=CC(=O)C(C(=O)CCc2cccc(Cl)c2)C(=O)O1 (stereo not shown) 12.7%

What inhibition at 100 µg/mL value was documented for this molecule, CC1=CC(=O)C(C(=O)CCc2ccc(C)cc2)C(=O)O1 (stereo not shown) ? 52.5%

GET /values?readout=inhibition at 100 µg/mL&item= CC1=CC(=O)C(C(=O)CCc2ccc(Cl)c(Cl)c2)C(=O)O1 (stereo not shown) 54.6%

Which measured inhibition at 100 µg/mL value corresponds to CC1=CC(=O)C(C(=O)CCc2c(C)cc(C)cc2C)C(=O)O1 (stereo not shown) ? 8.7%

I would be grateful if you could share the reported inhibition at 100 µg/mL for CCOc1cc(CCC(=O)C2C(=O)C=C(C)OC2=O)ccc1O (stereo not shown) . 22.7%

So what does the record say about inhibition at 100 µg/mL for CC1=CC(=O)C(C(=O)CCc2cccc(Br)c2)C(=O)O1 (stereo not shown) ? 11.3%

Give its inhibition at 100 µg/mL value. Item: CC1=CC(=O)C(C(=O)CCc2ccco2)C(=O)O1 (stereo not shown) 44.7%

----------
# SYSTEM NAME: UniProt:P15101
# Sequence (P15101 whole entry): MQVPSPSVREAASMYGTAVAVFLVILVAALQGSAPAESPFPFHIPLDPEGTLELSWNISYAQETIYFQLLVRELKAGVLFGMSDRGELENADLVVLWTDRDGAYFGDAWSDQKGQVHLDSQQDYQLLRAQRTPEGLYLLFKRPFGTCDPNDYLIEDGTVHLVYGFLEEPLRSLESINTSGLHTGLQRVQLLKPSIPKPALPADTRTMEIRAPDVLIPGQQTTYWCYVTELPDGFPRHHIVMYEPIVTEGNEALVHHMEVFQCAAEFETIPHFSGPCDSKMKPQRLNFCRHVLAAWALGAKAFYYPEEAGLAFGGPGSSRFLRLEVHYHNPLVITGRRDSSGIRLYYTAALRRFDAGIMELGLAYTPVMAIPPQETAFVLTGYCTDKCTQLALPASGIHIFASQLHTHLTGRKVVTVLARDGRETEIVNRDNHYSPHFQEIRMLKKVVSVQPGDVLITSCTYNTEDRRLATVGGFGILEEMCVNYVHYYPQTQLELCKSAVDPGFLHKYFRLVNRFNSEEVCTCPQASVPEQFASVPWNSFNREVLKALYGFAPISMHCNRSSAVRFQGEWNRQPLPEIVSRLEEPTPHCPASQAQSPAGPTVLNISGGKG
# PROTOCOL NOTES: Inhibition of dopamine β-hydroxylase (DH)
# Format: biochemical
# MEASUREMENT CONDITIONS: 200 mcg/cc
Label Yes when inhibition at 200 µg/mL >= 60%; otherwise No.

Hello, I need to know if CC1=CC(=O)C(C(=O)CCc2ccc(C)o2)C(=O)O1 (stereo not drawn) has measured inhibition at 200 µg/mL not below 60%. Thanks! Yes

Given the entry CC1=CC(=O)C(C(=O)CCc2ccccc2O)C(=O)O1 (stereo not drawn) , answer whether its inhibition at 200 µg/mL meets or surpasses 60%. No

Entry CC1=CC(=O)C(C(=O)CCc2ccc(Cl)cc2)C(=O)O1 (stereo not drawn) : is its inhibition at 200 µg/mL no less than 60%? Yes

In plain terms: is recorded inhibition at 200 µg/mL at least 60% for CCOc1ccc(CCC(=O)C2C(=O)C=C(C)OC2=O)cc1 (stereo not drawn) ? No

Exam item: decide whether the reported inhibition at 200 µg/mL for CC1=CC(=O)C(C(=O)CCc2cccs2)C(=O)O1 (stereo not drawn) is at least 60%. No

Record CC1=CC(=O)C(C(=O)CCc2ccc(F)cc2)C(=O)O1 (stereo not drawn) ; criterion: inhibition at 200 µg/mL no lower than 60%. Met? No

Item CC1=CC(=O)C(C(=O)CCc2cccc(Cl)c2)C(=O)O1 (stereo not drawn) with inhibition at 200 µg/mL of 60% or above? Yes

Hi team, for CC1=CC(=O)C(C(=O)CCc2cccc(Br)c2)C(=O)O1 (stereo not drawn) , is the recorded inhibition at 200 µg/mL at or above 60%? Yes

I'd appreciate it if you could say whether COc1ccccc1CCC(=O)C1C(=O)C=C(C)OC1=O (stereo not drawn) has inhibition at 200 µg/mL at least equal to 60%. Yes

I'd appreciate it if you could say whether CC1=CC(=O)C(C(=O)CCc2ccc(C)cc2)C(=O)O1 (stereo not drawn) has inhibition at 200 µg/mL at least equal to 60%. Yes

Hi team, for COc1cccc(CCC(=O)C2C(=O)C=C(C)OC2=O)c1 (stereo not drawn) , is the recorded inhibition at 200 µg/mL at or above 60%? Yes

Check this compound for inhibition at 200 µg/mL at or above 60%: COc1ccc(CCC(=O)C2C(=O)C=C(C)OC2=O)c(OC)c1 (stereo not drawn) No

Does inhibition at 200 µg/mL meet or surpass 60% for COc1ccc(CCC(=O)C2C(=O)C=C(C)OC2=O)cc1O (stereo not drawn) ? Yes

Does the compound CC1=CC(=O)C(C(=O)CCc2ccc(C(N)=O)cc2)C(=O)O1 (stereo not drawn) have recorded inhibition at 200 µg/mL that is 60% or more? No

Please check the record CC1=CC(=O)C(C(=O)CCc2ccc[nH]2)C(=O)O1 (stereo not drawn) and state if its inhibition at 200 µg/mL is at or above 60%. No

Hello, I need to know if COc1cccc(CCC(=O)C2C(=O)C=C(C)OC2=O)c1OC (stereo not drawn) has measured inhibition at 200 µg/mL not below 60%. Thanks! Yes
